Source of measurements: the Human Domainome abundance scans (Beltran et al. 2025)

B1: Homeobox protein cut-like 1, residues 548 to 629; numbered along this chain, P39880 (parent)
chain: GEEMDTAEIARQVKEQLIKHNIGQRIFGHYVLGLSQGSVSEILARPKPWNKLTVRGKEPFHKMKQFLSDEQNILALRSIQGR

- Variants of: B1
- Assay Method Text: abundance fitness (aPCA) (normalised: wild type 0, dead -1); higher = more abundant; growth selection in yeast, the domain comes from the species named
- Cond: Homo sapiens
Metric: abundance fitness

Worked cases, abundance fitness given:
T53D = 0.116
G1I = 0.049
P48F = -0.513
V13I = -0.102
G23C = -0.054

Hey, can you go through the list below and give me abundance fitness for every item?
1. Y30K
2. G28F
3. M4I
4. R45Y
5. R25W
6. S35V

(A)
1. -0.091
2. -0.329
3. 0.101
4. -0.085
5. -0.072
6. -0.236
